These measurements were taken from ChEMBL document CHEMBL1153931.

MEASUREMENT TYPE: pIC50
pIC50 (log units): -log10 of the concentration in mol/L.

-- ask Find pIC50 (NH(3)-dependent NAD(+) synthetase (Bacillus anthracis)) for the entry N#C/C(=C\c1ccccc1[N+](=O)[O-])C(=O)c1ccccc1
-- reply 4.29

-- ask Find pIC50 (NH(3)-dependent NAD(+) synthetase (Bacillus anthracis)) for the entry COc1ccc(Br)c(-c2nnc(-c3ccccc3NC(=O)NC(=O)c3ccccc3Cl)o2)c1
-- reply 3.66

-- ask Find pIC50 (NH(3)-dependent NAD(+) synthetase (Bacillus anthracis)) for the entry NC(=O)c1c(NC(=S)NC(=O)c2cccc([N+](=O)[O-])c2)sc2c1CCCC2
-- reply 3.73

-- ask Find pIC50 (NH(3)-dependent NAD(+) synthetase (Bacillus anthracis)) for the entry O=C(Cn1nnc(N2CCOCC2)n1)N/N=C/c1ccc(-c2cccc([N+](=O)[O-])c2)o1
-- reply 3.96

----------
tested on: Bacillus anthracis; experiment: Antibacterial activity against Bacillus anthracis Sterne; format: functional
Can you tell me MIC for the items I'm about to list?

-- ask Given the entry COc1cccc(NC(=O)Nc2nnc(COc3ccc([N+](=O)[O-])cc3)s2)c1 , report its measured MIC.
-- reply > 240 µM

-- ask Given the entry Cc1c(NC(=O)c2ccc(N3CCCC3)c([N+](=O)[O-])c2)cccc1-c1nc2ccccc2[nH]1 , report its measured MIC.
-- reply > 240 µM

-- ask Given the entry Cc1onc(-c2ccccc2)c1NC(=O)Nc1ccc(Oc2ncnc3cc(Cl)ccc23)nc1 , report its measured MIC.
-- reply > 240 µM

-- ask Given the entry O=C(Nc1cccc(C(=O)Nc2cccc3ccccc23)c1)c1cccc([N+](=O)[O-])c1 , report its measured MIC.
-- reply > 240 µM

-- ask Given the entry O=C(Cn1nnc(N2CCOCC2)n1)N/N=C/c1ccc(-c2cccc([N+](=O)[O-])c2)o1 , report its measured MIC.
-- reply > 240 µM

-- ask Given the entry O=C(Nc1ccc([N+](=O)[O-])cc1)c1ccc(-c2nnc(-c3ccccc3)o2)cc1 , report its measured MIC.
-- reply > 259 µM

-- ask Given the entry O=C(Nc1cccc(/N=C/c2cc([N+](=O)[O-])ccc2O)c1)c1cccc(Br)c1 , report its measured MIC.
-- reply > 227 µM

-- ask Given the entry O=C(Nc1ccc([N+](=O)[O-])cc1)Nc1ccc(S(=O)(=O)Nc2ccc(Cl)c(Cl)c2)cc1 , report its measured MIC.
-- reply 1.9 µM

-- ask Given the entry Cc1cc(-c2nnc(CSc3nnc(NC(=O)c4ccc(F)c(Cl)c4)s3)o2)ccc1[N+](=O)[O-] , report its measured MIC.
-- reply > 240 µM

-- ask Given the entry NC(=O)c1c(NC(=S)NC(=O)c2cccc([N+](=O)[O-])c2)sc2c1CCCC2 , report its measured MIC.
-- reply > 240 µM

-- ask Given the entry Cc1cc(C)c2oc(-c3cccc(NC(=O)/C=C/c4cccc([N+](=O)[O-])c4)c3)nc2c1 , report its measured MIC.
-- reply > 240 µM

-- ask Given the entry O=C(CCC(=O)Nc1ccc(Nc2ccccc2)cc1)Nc1ccc(Nc2ccccc2)cc1 , report its measured MIC.
-- reply > 222 µM

-- ask Given the entry O=C1C=C(Nc2ccccc2C(=O)O)C(=O)C=C1Nc1ccccc1C(=O)O , report its measured MIC.
-- reply > 264 µM

-- ask Given the entry NC(=O)c1ccc(/N=C/c2cc([N+](=O)[O-])ccc2Cl)cc1 , report its measured MIC.
-- reply > 329 µM

-- ask Given the entry COc1ccc(Oc2ccc([N+](=O)[O-])cc2C(=O)Nc2ccc(S(N)(=O)=O)cc2)cc1 , report its measured MIC.
-- reply > 240 µM

-- ask Given the entry O=C(Nc1ccc(S(=O)(=O)Nc2ncccn2)cc1)Nc1ccc(Cl)c(Cl)c1 , report its measured MIC.
-- reply 15 µM

-- ask Given the entry O=C(Nc1cccc(/N=C/c2cc([N+](=O)[O-])ccc2O)c1)c1ccc(Cl)cc1Cl , report its measured MIC.
-- reply > 232 µM

-- ask Given the entry COc1ccccc1NC(=O)NC(=O)c1ccc(-c2csnn2)cc1 , report its measured MIC.
-- reply > 240 µM

-- ask Given the entry COc1ccc(CCNC(=O)NCc2cccc(CNC(=O)NCCc3ccc(OC)cc3)c2)cc1 , report its measured MIC.
-- reply > 204 µM

----------
tested on: Bacillus anthracis; test: Antibacterial activity against Bacillus anthracis Sterne; assay type: functional
Can you tell me MIC for the items I'm about to list?

-- ask Given the entry O=C(Nc1ccc(/N=N/c2ccccc2)cc1)c1ccc([N+](=O)[O-])cc1 , report its measured MIC.
-- reply > 240 µM

-- ask Given the entry O=C(CSc1nc(Nc2ccccc2)nc(N2CCOCC2)n1)Nc1ccc([N+](=O)[O-])cc1O , report its measured MIC.
-- reply 15 µM

-- ask Given the entry COc1ccc(Br)c(-c2nnc(-c3ccccc3NC(=O)NC(=O)c3ccccc3Cl)o2)c1 , report its measured MIC.
-- reply > 240 µM

-- ask Given the entry CCOC(=O)C1=C(Nc2cccc3ccccc23)S/C(=C\c2ccc([N+](=O)[O-])cc2)C1=O , report its measured MIC.
-- reply > 224 µM

-- ask Given the entry O=C(Nc1cccc(Oc2ccc3c(c2)C(=O)N(c2ccccc2)C3=O)c1)c1cccc([N+](=O)[O-])c1 , report its measured MIC.
-- reply > 240 µM

-- ask Given the entry O=[N+]([O-])c1ccc(-c2cnc(N/N=C/c3cccc([N+](=O)[O-])c3)nc2)cc1 , report its measured MIC.
-- reply > 274 µM

-- ask Given the entry O=C(Nc1ccc2oc(-c3cc(Br)ccc3Cl)nc2c1)c1cccc([N+](=O)[O-])c1 , report its measured MIC.
-- reply > 240 µM

-- ask Given the entry Cc1ccc(C(=O)Nc2cccc(-c3nc4ccccc4[nH]3)c2)cc1 , report its measured MIC.
-- reply > 240 µM

-- ask Given the entry COc1ccc(NC(=O)Nc2cccc(NC(=O)Nc3ccc(OC)cc3)c2F)cc1 , report its measured MIC.
-- reply > 240 µM

----------
tested on: Bacillus anthracis; test: Antibacterial activity against Bacillus anthracis Sterne; format: functional
MEASUREMENT TYPE: MIC

-- ask Given the entry O=C(Cn1cc(/C=C/c2[nH]c(=O)[nH]c(=O)c2[N+](=O)[O-])c2ccccc21)Nc1ccc(F)cc1 , report its measured MIC.
-- reply > 223 µM

-- ask Given the entry NC(=O)c1ccc(NC(=O)c2ccc(Oc3ccc([N+](=O)[O-])cc3Cl)cc2)cc1 , report its measured MIC.
-- reply > 240 µM

-- ask Given the entry N#C/C(=C\c1ccccc1[N+](=O)[O-])C(=O)c1ccccc1 , report its measured MIC.
-- reply 120 µM

-- ask Given the entry O=C(Nc1ccccc1)Nc1ccc(NC(=O)c2ccc(NC(=O)Nc3ccccc3)cc2)cc1 , report its measured MIC.
-- reply > 240 µM

-- ask Given the entry O=C(COC(=O)c1ccc(NC(=O)c2ccc([N+](=O)[O-])cc2)cc1)c1ccc(F)cc1 , report its measured MIC.
-- reply > 237 µM

-- ask Given the entry O=[N+]([O-])c1ccc(O)c(/C=N/c2cccc(O)c2)c1 , report its measured MIC.
-- reply > 387 µM

-- ask Given the entry N/C(=N\OC(=O)c1ccc(Cl)c(Cl)c1)c1cccc(CSc2ccccn2)c1 , report its measured MIC.
-- reply > 240 µM

-- ask Given the entry Cc1ccc(-c2nc3cc(Cl)ccc3o2)cc1CC(=O)c1cc([N+](=O)[O-])c(C)c([N+](=O)[O-])c1 , report its measured MIC.
-- reply > 240 µM

-- ask Given the entry Nc1c(C(=O)c2ccc([N+](=O)[O-])cc2)sc(Nc2ccccc2)c1-c1nc2ccccc2[nH]1 , report its measured MIC.
-- reply > 240 µM

----------
system: Bacillus anthracis; assay: Antibacterial activity against Bacillus anthracis Sterne; type: functional
MEASUREMENT TYPE: MIC

-- ask Given the entry Nc1ncnc(Nc2ccc(Cl)cc2C(=O)c2ccccc2Cl)c1[N+](=O)[O-] , report its measured MIC.
-- reply > 247 µM

-- ask Given the entry CCc1ccc(S(=O)(=O)Nc2c([N+](=O)[O-])ccc3ccccc23)cc1 , report its measured MIC.
-- reply 3.8 µM

-- ask Given the entry COc1ccccc1NC(=O)COc1ccc(/C=C(/C#N)c2nc3ccccc3[nH]2)cc1 , report its measured MIC.
-- reply > 240 µM

-- ask Given the entry COc1ccc(NC(=O)Nc2ccc(Oc3ncnc4cc(Cl)ccc34)nc2)cc1OC1CCCC1 , report its measured MIC.
-- reply > 240 µM

-- ask Given the entry O=C(NC(=S)Nc1cc(-c2nc3ccccc3[nH]2)ccc1Cl)c1ccccc1[N+](=O)[O-] , report its measured MIC.
-- reply > 240 µM

-- ask Given the entry O=C(Nc1ccc(Cc2ccc(NC(=O)c3ccc4c(c3)OCO4)cc2)cc1)c1ccc2c(c1)OCO2 , report its measured MIC.
-- reply > 240 µM
